# ASSAY_DETAILS: Cytotoxicity against human K562-Tax cells assessed as reduction in cell viability incubated for 72 hrs by MTS assay
# Type: functional, cell-based
ENDPOINT_NAME: pIC50
Interpret pIC50 as the negative base-10 log of the concentration measured in mol/L.

[in] Answer with the recorded pIC50 of C=C(C)[C@@H]1CC[C@]2(C(=O)O)CC[C@]3(C)[C@H](CC[C@@H]4[C@@]5(C)CC6=C(C7C(=O)N(c8ccccc8)C(=O)C7C=C6C(F)(F)F)C(C)(C)[C@@H]5CC[C@]43C)[C@@H]12 (some centres undefined) only.
[out] 5.01

[in] Answer with the recorded pIC50 of C[C@H]1[C@H](C)CC[C@]2(C(=O)O)CC[C@]3(C)C(=CC[C@@H]4[C@@]5(C)Cc6c(C(F)(F)F)cc(=O)oc6C(C)(C)[C@@H]5CC[C@]43C)[C@H]12 only.
[out] 4.68

[in] Answer with the recorded pIC50 of C=C(C)[C@@H]1CC[C@]2(C(=O)O)CC[C@]3(C)[C@H](CC[C@@H]4[C@@]5(C)Cc6c(C(F)(F)F)cc(=O)oc6C(C)(C)[C@@H]5CC[C@]43C)[C@@H]12 only.
[out] 5.00

[in] Answer with the recorded pIC50 of C[C@H]1[C@H](C)CC[C@]2(C(=O)O)CC[C@]3(C)C(=CC[C@@H]4[C@@]5(C)CC6=C(C7C(=O)N(c8ccccc8)C(=O)C7C=C6C(F)(F)F)C(C)(C)[C@@H]5CC[C@]43C)[C@H]12 (some centres undefined) only.
[out] 4.64
